Recorded growth, one value per entry.
tested on: SK-OV-3 ovarian; experiment: NCI-60 one-dose screen, 48 h (100 = growth as untreated, 0 = no growth, -100 = all killed); settings: 10 µM unless noted
The panel holds about 83,000 compounds, 20% with a hit somewhere; the sample as a whole holds those more often.
Answer in %, number only, no unit symbol.

// solved cases for growth follow
COc1ccc(-c2nnc(-c3ccc4c(c3)nc(-c3ccncc3)n4C3CCCCC3)o2)cc1 | 80.4
C=CCn1c(SCC(=O)Nc2ccc(C(=O)/C=C/c3cc4cc(OC)ccc4nc3Cl)cc2)nnc1-c1ccc(Br)cc1 | 95.7
N#CC1C=CN(CC(N)=O)c2ccc3cccnc3c21 (centres undefined) | 97.1
N=C(N)c1ccc(-c2ccc(-c3ccc(F)cc3)o2)o1 | 28.1

Request the reported growth associated with Cn1c(O)c(C=NCCN=Cc2c(O)n(C)c(=O)n(C)c2=O)c(=O)n(C)c1=O
107

Which growth is listed for CC(C)=CCC[C@](C)(O)[C@H]1CC[C@]2(C)[C@@H]1CC[C@@H]1[C@@]3(C)Cc4nccnc4C(C)(C)[C@@H]3CC[C@]12C ?
84.1

Recorded growth for CCS/C(Nc1ccccc1)=C(\C#N)C(=O)N/N=C/c1ccc(Cl)cc1Cl , please?
15.5

Which value of growth has been reported for CN(C)CCCn1c2c(c3ncccc3c1=O)C(=O)c1ccccc1-2 in the records?
69.6

Query (molecule): O=C1/C(=C/c2cccs2)SC(=S)N1CCCN1CCOCC1 ; field requested: growth
99.4
